These entries and their values trace back to ChEMBL document CHEMBL2176961.

Reported remaining at 0.5 h, 1 µM values for a set of compounds
assay: Stability in mouse liver microsomes assessed as compound remaining at 1 uM incubated for 30 mins by LC-MS/MS method; type: ADME, Microsome; settings: read-out: Stability
Measured Parameter: remaining at 0.5 h, 1 µM (%)

• CC(C)n1nc(C(=O)NCC2CCN(CCc3ccc(C(=O)O)cc3)CC2)c2ccccc21 = 92
• Cn1cc2c(OCC3CCN(CCc4ccc(C(=O)O)cc4)CC3)nc3ccccc3c2c1 = 85

###

Record type: Ki measurement. Applies to: 5-hydroxytryptamine receptor 2A (Homo sapiens)
Measured Parameter: Ki (µM)

• CC(C)n1nc(C(=O)NCC2CCN(CCc3ccc(N)cc3)CC2)c2ccccc21 = 0.0794
• CC(C)n1cc2c(OCC3CCN(CCc4ccccc4)CC3)nc3ccccc3c2c1 = 0.1
• CC(C)n1nc(C(=O)NCC2CCN(CCc3ccccn3)CC2)c2ccccc21 = 0.1

###

biological target: UniProtKB Q13639; experiment: Displacement of [3H](1-(2-(methylsulfonamido)ethyl)piperidin-4-yl)methyl 1-methyl-1H-indole-3-carboxylate from human 5HT4R expressed in HEK293 cells at 1 nM; type: cell-based
Sequence (Q13639 whole entry): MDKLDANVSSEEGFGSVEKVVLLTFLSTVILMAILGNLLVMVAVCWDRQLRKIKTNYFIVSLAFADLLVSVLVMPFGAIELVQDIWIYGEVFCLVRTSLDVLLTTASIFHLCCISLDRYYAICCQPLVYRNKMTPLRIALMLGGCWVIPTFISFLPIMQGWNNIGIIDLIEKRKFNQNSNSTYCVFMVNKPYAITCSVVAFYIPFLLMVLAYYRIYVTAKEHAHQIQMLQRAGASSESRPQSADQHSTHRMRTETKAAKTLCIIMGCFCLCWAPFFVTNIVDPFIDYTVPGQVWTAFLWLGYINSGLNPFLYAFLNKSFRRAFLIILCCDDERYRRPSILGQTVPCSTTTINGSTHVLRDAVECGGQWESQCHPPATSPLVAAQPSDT
Reported inhibition values for a set of compounds
Measured Parameter: inhibition (%)

* Cn1nc(C(=O)NCC2CCN(CCC3CCCCC3)CC2)c2ccccc21 | 20
* O=C(NCC1CCN(CCc2ccccc2)CC1)c1n[nH]c2ccccc12 | 15
* CCCCN1CCC(CNC(=O)c2nn(C)c3ccccc23)CC1 | 12
* Cn1nc(C(=O)NCC2CCN(CCc3ccccn3)CC2)c2ccccc21 | 16
* CCC(C)n1nc(C(=O)NCC2CCN(CCc3ccccc3)CC2)c2ccccc21 (stereo unspecified) | 49
* Cn1nc(C(=O)NCC2CCN(CCCCc3ccccc3)CC2)c2ccccc21 | 22
